Tested on: 171881-019-R-J1-PDC tumor spheroids, viability
Assay: Anticancer human tumor 171881-019-R-J1-PDC patient-derived invasive breast carcinoma cell line growth inhibition [GQUAD]
Conditions: second compound 0.316 µM; first compound 1 µM; active compounds read low; spheroids with HUVEC and MSC
viability, T/C for assorted compounds

Lookup: Name the recorded viability, T/C for C#Cc1c(F)ccc2cc(O)cc(-c3ncc4c(N5CC6CCC(C5)N6)nc(OCC56CCCN5CC(F)C6)nc4c3F)c12 (stereo not given) + Cc1[nH]c2ccc(F)cc2c1-c1nc2c3cccnc3c3ncccc3c2[nH]1 .
Found: 31%

Lookup: Name the recorded viability, T/C for O=C(c1cc(Cc2n[nH]c(=O)c3ccccc23)ccc1F)N1CCN(C(=O)C2CC2)CC1 + CN(C)c1ccc(Nc2c3ccc(NC(=O)CCN4CCCC4)cc3nc3cc(NC(=O)CCN4CCCC4)ccc23)cc1 .
Found: 78.5%

Lookup: Name the recorded viability, T/C for CC(=O)O[C@H]1C(=O)[C@@]2(C)[C@H]([C@H](OC(=O)c3ccccc3)[C@]3(O)C[C@H](OC(=O)[C@H](O)[C@@H](NC(=O)c4ccccc4)c4ccccc4)C(C)=C1C3(C)C)[C@]1(OC(C)=O)CO[C@@H]1C[C@@H]2O + Cc1cnc(CNC(=O)c2c(=O)c3ccc(N4CCCN(C)CC4)nc3n3c2sc2ccccc23)cn1 .
Found: 35%

Lookup: Name the recorded viability, T/C for O=C(NO)c1cnc(N2CCN(S(=O)(=O)c3ccc4ccccc4c3)CC2)nc1 + Cc1[nH]c2ccc(F)cc2c1-c1nc2c3cccnc3c3ncccc3c2[nH]1 .
Found: 2.53%

Lookup: Name the recorded viability, T/C for CC1COCCN1c1cc(C2(S(C)(=N)=O)CC2)nc(-c2ccnc3[nH]ccc23)n1 (stereo not given) + Cc1cnc(CNC(=O)c2c(=O)c3ccc(N4CCCN(C)CC4)nc3n3c2sc2ccccc23)cn1 .
Found: 45.7%

----------
System: 171881-019-R-J1-PDC tumor spheroids, viability
Assay: Anticancer human tumor 171881-019-R-J1-PDC cell line growth inhibition [GQUAD];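 further: spheroids exposed to compounds for 7 days; 100% = DMSO vehicle control viability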
Settings: second compound 0.316 µM; first compound 10 µM; active compounds read low; spheroids with HUVEC and MSC
viability, T/C for assorted compounds
Give the value in % but do not write % after it.

Solved cases below.
compound="CC(C)(O)C1CCC(Nc2ccc3ncc(-c4cccc(C(F)(F)F)c4)n3n2)CC1 (stereo not given) + Cc1cnc(CNC(=O)c2c(=O)c3ccc(N4CCCN(C)CC4)nc3n3c2sc2ccccc23)cn1" measurement=25.7
compound="COc1ccc([C@@H](O)c2cc(-c3ncnc4cc(N5CCOCC5)ccc34)c(F)cc2Cl)nn1 + Cc1cnc(CNC(=O)c2c(=O)c3ccc(N4CCCN(C)CC4)nc3n3c2sc2ccccc23)cn1" measurement=6.36
compound="CC(C)n1c(=O)n(C)c2cnc3cc(F)c(-c4ccc(OCCCN5CCCCC5)nc4)cc3c21 + CN(C)c1ccc(Nc2c3ccc(NC(=O)CCN4CCCC4)cc3nc3cc(NC(=O)CCN4CCCC4)ccc23)cc1" measurement=4.16
compound="CC1COCCN1c1cc(C2(O)CC3CCC(C2)O3)c2cnn(-c3ccn[nH]3)c2n1 (stereo not given) + CN(C)c1ccc(Nc2c3ccc(NC(=O)CCN4CCCC4)cc3nc3cc(NC(=O)CCN4CCCC4)ccc23)cc1" measurement=0.73
compound="COc1cccc2c1C(=O)c1c(O)c3c(c(O)c1C2=O)CC(O)(C(=O)CO)CC3OC1CC(N)C(O)C(C)O1 (stereo not given) + Cc1cnc(CNC(=O)c2c(=O)c3ccc(N4CCCN(C)CC4)nc3n3c2sc2ccccc23)cn1" measurement=0.4

Lookup: Name the recorded viability, T/C for COc1ncnc(C2CC2)c1-c1ncc2cnn(Cc3ccc(-c4nc(C(F)(F)F)cn4C(C)C)cc3)c2n1 + CN(C)c1ccc(Nc2c3ccc(NC(=O)CCN4CCCC4)cc3nc3cc(NC(=O)CCN4CCCC4)ccc23)cc1 .
Found: 11.6

Lookup: Name the recorded viability, T/C for Cc1cccc(N(C)C(=O)C2C(O)CCN2c2nc(C)cc(C(F)(F)F)c2C#N)c1 (stereo not given) + Cc1cnc(CNC(=O)c2c(=O)c3ccc(N4CCCN(C)CC4)nc3n3c2sc2ccccc23)cn1 .
Found: 69

Lookup: Name the recorded viability, T/C for CC1COCCN1c1cc(C2(O)CC3CCC(C2)O3)c2cnn(-c3ccn[nH]3)c2n1 (stereo not given) + Cc1cnc(CNC(=O)c2c(=O)c3ccc(N4CCCN(C)CC4)nc3n3c2sc2ccccc23)cn1 .
Found: 3.15

Lookup: Name the recorded viability, T/C for C#Cc1c(F)ccc2cc(O)cc(-c3ncc4c(N5CC6CCC(C5)N6)nc(OCC56CCCN5CC(F)C6)nc4c3F)c12 (stereo not given) + CN(C)c1ccc(Nc2c3ccc(NC(=O)CCN4CCCC4)cc3nc3cc(NC(=O)CCN4CCCC4)ccc23)cc1 .
Found: 0.81

Lookup: Name the recorded viability, T/C for O=C(c1cc(Cc2n[nH]c(=O)c3ccccc23)ccc1F)N1CCN(C(=O)C2CC2)CC1 + CN(C)c1ccc(Nc2c3ccc(NC(=O)CCN4CCCC4)cc3nc3cc(NC(=O)CCN4CCCC4)ccc23)cc1 .
Found: 60.8
